tgt: Full length Human HDAC1 (Homo sapiens)
Construct: Full length Human HDAC1; His (C); FLAG (C); host or cells: baculovirus expression system
Sequence (Q13547 whole entry): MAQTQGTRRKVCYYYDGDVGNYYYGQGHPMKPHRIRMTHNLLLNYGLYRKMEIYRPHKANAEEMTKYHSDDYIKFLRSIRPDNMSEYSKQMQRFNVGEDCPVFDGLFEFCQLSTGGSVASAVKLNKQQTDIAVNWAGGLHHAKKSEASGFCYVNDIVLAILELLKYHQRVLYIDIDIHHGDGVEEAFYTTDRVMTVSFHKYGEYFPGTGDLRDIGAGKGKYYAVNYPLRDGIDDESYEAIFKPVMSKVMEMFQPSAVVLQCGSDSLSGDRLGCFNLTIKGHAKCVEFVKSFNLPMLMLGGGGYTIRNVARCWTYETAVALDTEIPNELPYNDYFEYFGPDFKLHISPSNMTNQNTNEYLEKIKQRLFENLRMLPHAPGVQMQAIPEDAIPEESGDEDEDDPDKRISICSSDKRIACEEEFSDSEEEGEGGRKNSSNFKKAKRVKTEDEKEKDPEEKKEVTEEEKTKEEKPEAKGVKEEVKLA
assay explanation: HDAC1 enzymatic assay (deacetylation of FAM-labeled peptide substrate, microfluidic electrophoresis)
Format: biochemical
condition parameters: recombinant enzymatic assay, Table 4, numeric
pIC50: −log10 of the molar value.
experimental endpoint: pIC50

A selection of reference data follows.
Nc1ccc(-c2ccc(F)cc2F)nc1NC(=O)N1CC(c2ncccn2)C1 [Comparator A, reference compound] ... 5.34
Nc1ccc(-c2ccc(F)cc2F)nc1NC(=O)N1CC(Cc2ncccn2)C1 ... 6.34

A = Cc1cnc(CC2CN(C(=O)Nc3nc(-c4ccc(F)cc4F)ccc3N)C2)cn1
B = Cc1cnc(C2CN(C(=O)Nc3nc(-c4ccc(F)cc4F)ccc3N)C2)cn1 [Comparator C, reference compound]
C = Cc1ncc(CC2CN(C(=O)Nc3nc(-c4ccc(F)cc4F)ccc3N)C2)cn1
**Q:** Hi! Can you put these in order of pIC50, lowest number first? Lab note: record answer as labels in requested order.
**A:** B, C, A
(B: 4.86, C: 5.65, A: 6.39)
